As shown below, each of these compounds has a reported Cmax value.
# experiment: Cmax in female cynomolgus monkey at 375 mg/kg, po BID measured on day 8
# Format: ADME, organism-based, Macaca fascicularis
# Design: route oral, dose 375 mg/kg
# recorded-conditions: in vivo
readout-type: Cmax (nM)

compound-structure-string | readout-type | reported-value
CC(C)C[C@H](N)C(=O)N[C@H](Cc1cn(C)c2ccccc12)C(=O)O | Cmax | 308
CCOC(=O)[C@@H](Cc1cn(C)c2ccccc12)NC(=O)[C@@H](N)CC(C)C.Cl | Cmax | 403
Cn1cc(C[C@@H](N)C(=O)O)c2ccccc21 | Cmax | 203000

###

Recorded Cmax/dose for the following compounds
# experiment: Dose normalized Cmax in rat at 50 mg/kg, po measured upto 72 hrs by LC-MS/MS analysis
# Assay type: ADME, organism-based
# recorded-conditions: in vivo
readout-type: Cmax/dose (µM)

compound | reported-value
CC(C)OC(=O)[C@H](N)Cc1cn(C)c2ccccc12.Cl | 28
CCOC(=O)N[C@H](Cc1cn(C)c2ccccc12)C(=O)O | 6
Cn1cc(C[C@@H](N)C(=O)O)c2ccccc21 [INDOXIMOD] | 27
Cn1cc(C[C@@H](NC(=O)OCC(C)(C)C)C(=O)O)c2ccccc21 | 0.15
Cl.Cn1cc(C[C@@H](N)C(=O)OCc2ccccc2)c2ccccc21 | 28
CCOC(=O)[C@H](N)Cc1cn(C)c2ccccc12.Cl | 66

###

Listed next: entries and their corresponding AUC/dose.
# experiment: Dose normalized AUC (0 to infinity) in rat at 10 mg/kg, po measured upto 72 hrs by LC-MS/MS analysis
# Type: ADME, organism-based
# recorded-conditions: in vivo
Where a SMILES comes first, the peptide text is derived from it. [ ]: non-standard residue; d: D form. dTrp(1-Me) = Cn1cc(C[C@@H](N)C(=O)O)c2ccccc21

compound | AUC/dose, µM·h
CC[C@H](C)[C@H](N)C(=O)N[C@H](Cc1cn(C)c2ccccc12)C(=O)O.Cl | 316
Cl.Cn1cc(C[C@@H](N)C(=O)OCC2CCNCC2)c2ccccc21 | 889
Cl.Cn1cc(C[C@@H](NC(=O)[C@H](N)Cc2c[nH]c3ccccc23)C(=O)O)c2ccccc21 | 182
CCOC(=O)[C@@H](Cc1cn(C)c2ccccc12)NC(=O)[C@@H](N)CCC(N)=O.Cl | 806
Cn1cc(C[C@@H](N)C(=O)O)c2ccccc21 | 508
Cl.Cn1cc(C[C@@H](N)C(=O)OCC(O)CO)c2ccccc21 (stereo not given in full) | 595
Cl.Cn1cc(C[C@@H](NC(=O)[C@@H](N)Cc2c[nH]c3ccccc23)C(=O)O)c2ccccc21 | 415
Cl.Cn1cc(C[C@@H](N)C(=O)OCCC2CCOCC2)c2ccccc21 | 774
Cl.Cn1cc(C[C@@H](NC(=O)[C@@H](N)Cc2ccccc2)C(=O)O)c2ccccc21 | 425
Cl.Cn1cc(C[C@@H](NC(=O)[C@@H](N)CCCCN)C(=O)O)c2ccccc21 | 795
CCOC(=O)[C@@H](Cc1cn(C)c2ccccc12)NC(=O)[C@@H](N)CC(C)C.Cl | 888
CC(C)C[C@H](N)C(=O)N[C@H](Cc1cn(C)c2ccccc12)C(=O)O.Cl | 617
Cl.Cn1cc(C[C@@H](NC(=O)CN)C(=O)O)c2ccccc21 (H-Gly-[dTrp(1-Me)]-OH) | 599
C[C@H](N)C(=O)N[C@H](Cc1cn(C)c2ccccc12)C(=O)O.Cl | 310
Cl.Cn1cc(C[C@@H](N)C(=O)OCCC2CCNCC2)c2ccccc21 | 110
CCOC(=O)[C@@H](Cc1cn(C)c2ccccc12)NC(=O)[C@@H](N)[C@@H](C)CC.Cl | 606
CN(C)CCOC(=O)[C@H](N)Cc1cn(C)c2ccccc12.Cl | 731
CCOC(=O)[C@@H](Cc1cn(C)c2ccccc12)NC(=O)[C@@H](N)Cc1ccccc1.Cl | 329
Cl.Cn1cc(C[C@@H](NC(=O)[C@@H](N)CCC(N)=O)C(=O)O)c2ccccc21 | 372
Cl.Cn1cc(C[C@@H](N)C(=O)N[C@H](Cc2cn(C)c3ccccc23)C(=O)O)c2ccccc21 | 262

###

# experiment: AUC (0 to 24 hrs) at steady state in mouse at 62 mg/kg administered bid
# Assay type: ADME, organism-based
# Design: time < 24 hr, dose 62 mg/kg
# recorded-conditions: in vivo

compound-structure-string | AUC at 24 h
Cn1cc(C[C@@H](N)C(=O)O)c2ccccc21 | > 170 µM·h

###

# experiment: Drug metabolism in cynomolgus monkey hepatocytes assessed as unmetabolized compound at 10 uM incubated for 120 mins by UPLC-QTOF-PDA analysis
# Type: ADME, cell-based, Macaca fascicularis, Hepatocyte
# recorded-conditions: read-out: Drug metabolism

compound-structure-string | remaining at 2 h, 10 µM
CCOC(=O)[C@@H](Cc1cn(C)c2ccccc12)NC(=O)[C@@H](N)CC(C)C.Cl | 1.3%

###

# experiment: Stability in human plasma assessed as parent compound remaining measured after 6 hrs by LC-MS/MS analysis
# Format: ADME, cell-free
# recorded-conditions: read-out: Stabilty
Under this convention, y denotes remaining at 6 h strictly below 70% and n denotes remaining at 6 h at or above 70%.

molecule | cat
CCOC(=O)[C@@H](Cc1cn(C)c2ccccc12)NC(=O)[C@@H](N)CCC(N)=O.Cl | y
Cl.Cn1cc(C[C@@H](NC(=O)[C@H](N)Cc2c[nH]c3ccccc23)C(=O)O)c2ccccc21 | n
Cl.Cn1cc(C[C@@H](N)C(=O)OCC(N)C(=O)O)c2ccccc21 (single isomer, unassigned) | y
Cl.Cn1cc(C[C@@H](N)C(=O)OCC(O)CO)c2ccccc21 (stereo not given in full) | y

###

# experiment: Tmax in male cynomolgus monkey at 675 mg/kg, po measured on day 1
# Type: ADME, organism-based, Macaca fascicularis
# recorded-conditions: in vivo
readout-type: Tmax (h)

compound-structure-string | unit-label | reported-value
CC(C)C[C@H](N)C(=O)N[C@H](Cc1cn(C)c2ccccc12)C(=O)O | h | 1
CCOC(=O)[C@@H](Cc1cn(C)c2ccccc12)NC(=O)[C@@H](N)CC(C)C.Cl | h | 2
Cn1cc(C[C@@H](N)C(=O)O)c2ccccc21 | h | 4

###

# experiment: AUC (0 to 24 hrs) in male cynomolgus monkey at 75 mg/kg, po measured on day 1
# Type: ADME, organism-based, Macaca fascicularis
# Parameters: time < 24 hr, route oral, dose 75 mg/kg
# recorded-conditions: in vivo
readout-type: AUC(0-t) at 24 h (µM·h)

compound | reported-value
Cn1cc(C[C@@H](N)C(=O)O)c2ccccc21 [INDOXIMOD] | 223

###

Below: a set of entries, each annotated with reported remaining at 3 h, 5 µM.
# experiment: Chemical stability of compound in simulated intestinal fluid assessed as compound remaining at 5 uM measured after 3 hrs by LC-MS/MS analysis
# Type: ADME, physicochemical
# recorded-conditions: read-out: Stabilty
readout-type: remaining at 3 h, 5 µM (%)

molecule | unit-label | reported-value
CCOC(=O)[C@@H](Cc1cn(C)c2ccccc12)NC(=O)[C@@H](N)CCC(N)=O.Cl | % | 70
Cl.Cn1cc(C[C@@H](NC(=O)[C@@H](N)Cc2ccccc2)C(=O)O)c2ccccc21 | % | 91
Cl.Cn1cc(C[C@@H](NC(=O)[C@@H](N)CCCCN)C(=O)O)c2ccccc21 | % | 96
CC[C@H](C)[C@H](N)C(=O)N[C@H](Cc1cn(C)c2ccccc12)C(=O)O.Cl | % | 94
CCOC(=O)[C@@H](Cc1cn(C)c2ccccc12)NC(=O)[C@@H](N)CC(C)C.Cl | % | 91
C[C@H](N)C(=O)N[C@H](Cc1cn(C)c2ccccc12)C(=O)O.Cl | % | 36
Cl.Cn1cc(C[C@@H](N)C(=O)OCC(O)CO)c2ccccc21 (stereo not given in full) | % | 34
Cl.Cn1cc(C[C@@H](NC(=O)[C@@H](N)CCC(=O)O)C(=O)O)c2ccccc21 | % | 88
Cl.Cn1cc(C[C@@H](N)C(=O)OCC(N)C(=O)O)c2ccccc21 (single isomer, unassigned) | % | 0
Cl.Cn1cc(C[C@@H](N)C(=O)N[C@H](Cc2cn(C)c3ccccc23)C(=O)O)c2ccccc21 | % | 81
Cl.Cn1cc(C[C@@H](N)C(=O)OCCC2CCOCC2)c2ccccc21 | % | 67
CN(C)CCOC(=O)[C@H](N)Cc1cn(C)c2ccccc12.Cl | % | 0
Cl.Cn1cc(C[C@@H](NC(=O)[C@H](N)Cc2c[nH]c3ccccc23)C(=O)O)c2ccccc21 | % | 53
CC(C)C[C@H](N)C(=O)N[C@H](Cc1cn(C)c2ccccc12)C(=O)O.Cl | % | 66
Cl.Cn1cc(C[C@@H](NC(=O)[C@@H](N)CCC(N)=O)C(=O)O)c2ccccc21 | % | 53
